assay: Kinetic solubility of the compound in pION buffer at pH 7.4 measured after 18 hrs
Assay type: physicochemical
particulars: read-out: Kinetic_solubility
Entries and their solubility kinetic at 18 h values follow.
Report the figure in µg/mL without appending any unit label.

Entry CC[C@]1(CC(=O)O)CCc2cc(-c3ccc(NC(=O)Nc4ccc(Cl)cc4)cc3)ccc2C1=O , solubility kinetic at 18 h reported as 0.4

The reported value for CCC1(CC(=O)O)CCc2cc(-c3ccc(NC(=O)Nc4ccc(C(F)(F)F)cc4)cc3)ccc2C1=O (configuration not stated) in terms of solubility kinetic at 18 h is 46

The molecule identified as CC[C@@]1(CC(=O)O)CCc2cc(-c3ccc(NC(=O)Nc4cccc(C(F)(F)F)c4)cc3)ccc2C1=O registered its solubility kinetic at 18 h at 78

Record CCC1(CC(=O)O)CCc2cc(-c3ccc(NC(=O)Nc4cccc(Cl)c4)cc3)ccc2C1=O (configuration not stated) . Reported solubility kinetic at 18 h: 101

molecule CCCC1(CC(=O)O)CCc2cc(-c3ccc(NC(=O)Nc4ccccc4)cc3)ccc2C1=O (configuration not stated) , solubility kinetic at 18 h observed: 74

Lab book: solubility kinetic at 18 h of CC1(CC(=O)O)CCc2cc(-c3ccc(NC(=O)Nc4ccccc4)cc3)ccc2C1=O (configuration not stated) noted as 54

Below: the item to evaluate.
Lab book: solubility kinetic at 18 h of O=C(O)C[C@]1(CC(F)(F)F)CCc2cc(-c3cnc(NC(=O)Nc4ccc(F)c(F)c4)cn3)ccc2C1=O noted as 134
